- Study system: UniProt:Q12809
- Run description: hERG inhibition
Measured quantity: pEC50
Field pEC50 (float): negative decimal logarithm of the concentration in molar.

Prompt: Can you look up the measured pEC50 of CCN(CC)C(=O)[C@@H]1C=C2c3cccc4[nH]c(Br)c(c34)C[C@H]2N(C)C1.CCN(CC)C(=O)[C@@H]1C=C2c3cccc4[nH]c(Br)c(c34)C[C@H]2N(C)C1.O=C(O)C(O)C(O)C(=O)O [2-Br-LSD] for me?
Response: 4.50

---

- Study system: 5-HT2A (Homo sapiens, UniProt P28223)
- Sequence (P28223 whole entry): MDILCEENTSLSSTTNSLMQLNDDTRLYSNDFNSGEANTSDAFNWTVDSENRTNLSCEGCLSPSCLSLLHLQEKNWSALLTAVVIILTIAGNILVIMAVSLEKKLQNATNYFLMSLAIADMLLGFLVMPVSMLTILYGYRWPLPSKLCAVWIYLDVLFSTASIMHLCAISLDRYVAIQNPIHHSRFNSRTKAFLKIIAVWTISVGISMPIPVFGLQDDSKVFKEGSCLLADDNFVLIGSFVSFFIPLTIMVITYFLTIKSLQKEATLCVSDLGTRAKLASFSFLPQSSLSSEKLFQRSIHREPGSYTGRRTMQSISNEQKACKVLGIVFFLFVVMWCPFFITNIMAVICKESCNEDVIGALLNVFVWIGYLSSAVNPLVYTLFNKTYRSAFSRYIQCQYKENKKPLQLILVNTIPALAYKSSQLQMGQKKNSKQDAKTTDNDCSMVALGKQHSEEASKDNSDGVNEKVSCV
- Condition details: Gq dissociation
Measured quantity: pEC50
Entry type: numeric. Quantity: pEC50, the -log10 of concentration in molar units.

Prompt: Form field: reported pEC50 of CCN(CC)C(=O)[C@@H]1C=C2c3cccc4[nH]c(Br)c(c34)C[C@H]2N(C)C1.CCN(CC)C(=O)[C@@H]1C=C2c3cccc4[nH]c(Br)c(c34)C[C@H]2N(C)C1.O=C(O)C(O)C(O)C(=O)O
Response: 9.09

---

- Run description: Pharmacokinetics in plasma and brain of mice
- Condition details: read-out: mean plasma Cmax; IP 6.75 mg/kg, females
Measured quantity: Cmax (nM)
Kindly answer with a numeric value in nM, unit omitted.

Prompt: Need Cmax, item CCN(CC)C(=O)[C@@H]1C=C2c3cccc4[nH]c(Br)c(c34)C[C@H]2N(C)C1.CCN(CC)C(=O)[C@@H]1C=C2c3cccc4[nH]c(Br)c(c34)C[C@H]2N(C)C1.O=C(O)C(O)C(O)C(=O)O
Response: 2100

---

- Study system: hERG (KV11.1) channel (Homo sapiens)
- Sequence (Q12809 whole entry): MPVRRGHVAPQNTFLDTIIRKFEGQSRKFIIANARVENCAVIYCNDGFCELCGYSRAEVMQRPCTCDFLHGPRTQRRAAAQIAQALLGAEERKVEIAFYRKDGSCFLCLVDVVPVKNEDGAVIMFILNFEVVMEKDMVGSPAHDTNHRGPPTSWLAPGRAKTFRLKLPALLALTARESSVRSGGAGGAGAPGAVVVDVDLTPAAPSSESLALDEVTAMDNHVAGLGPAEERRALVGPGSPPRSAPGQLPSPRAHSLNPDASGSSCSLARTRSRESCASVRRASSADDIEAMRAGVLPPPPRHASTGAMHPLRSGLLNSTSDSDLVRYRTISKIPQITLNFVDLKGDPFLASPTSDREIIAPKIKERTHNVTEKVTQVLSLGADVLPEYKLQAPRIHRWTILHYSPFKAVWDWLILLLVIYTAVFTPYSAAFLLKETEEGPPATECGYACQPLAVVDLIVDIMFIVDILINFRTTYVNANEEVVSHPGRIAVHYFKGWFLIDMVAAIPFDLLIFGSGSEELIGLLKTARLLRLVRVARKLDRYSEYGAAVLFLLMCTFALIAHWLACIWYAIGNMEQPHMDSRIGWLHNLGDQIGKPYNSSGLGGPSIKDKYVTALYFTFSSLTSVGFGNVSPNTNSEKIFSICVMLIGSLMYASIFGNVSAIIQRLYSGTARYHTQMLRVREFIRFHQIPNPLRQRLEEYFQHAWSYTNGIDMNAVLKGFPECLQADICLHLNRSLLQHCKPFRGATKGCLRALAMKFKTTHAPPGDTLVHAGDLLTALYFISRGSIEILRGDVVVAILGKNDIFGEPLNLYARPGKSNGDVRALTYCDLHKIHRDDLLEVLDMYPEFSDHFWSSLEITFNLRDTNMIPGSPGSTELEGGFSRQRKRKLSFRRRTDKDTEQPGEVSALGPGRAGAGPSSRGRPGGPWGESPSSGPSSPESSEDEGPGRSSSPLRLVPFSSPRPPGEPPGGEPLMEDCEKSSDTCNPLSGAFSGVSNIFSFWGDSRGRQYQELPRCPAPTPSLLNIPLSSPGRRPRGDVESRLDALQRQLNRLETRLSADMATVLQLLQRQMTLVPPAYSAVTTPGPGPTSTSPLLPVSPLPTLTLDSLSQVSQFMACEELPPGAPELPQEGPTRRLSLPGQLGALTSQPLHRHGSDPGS
- Condition details: read-out: IC50 (hERG inhibition)
Measured quantity: pIC50
Hey, just a heads up that pIC50 is the negative log base 10 of the concentration in molar.

Prompt: Look at this compound and give its reported pIC50. CCN(CC)C(=O)[C@@H]1C=C2c3cccc4[nH]c(Br)c(c34)C[C@H]2N(C)C1.CCN(CC)C(=O)[C@@H]1C=C2c3cccc4[nH]c(Br)c(c34)C[C@H]2N(C)C1.O=C(O)C(O)C(O)C(=O)O
Response: 4.50

---

- Study system: 5-HT7a (Homo sapiens, UniProt P34969)
- Sequence (P34969 1-445 isoform P34969-2): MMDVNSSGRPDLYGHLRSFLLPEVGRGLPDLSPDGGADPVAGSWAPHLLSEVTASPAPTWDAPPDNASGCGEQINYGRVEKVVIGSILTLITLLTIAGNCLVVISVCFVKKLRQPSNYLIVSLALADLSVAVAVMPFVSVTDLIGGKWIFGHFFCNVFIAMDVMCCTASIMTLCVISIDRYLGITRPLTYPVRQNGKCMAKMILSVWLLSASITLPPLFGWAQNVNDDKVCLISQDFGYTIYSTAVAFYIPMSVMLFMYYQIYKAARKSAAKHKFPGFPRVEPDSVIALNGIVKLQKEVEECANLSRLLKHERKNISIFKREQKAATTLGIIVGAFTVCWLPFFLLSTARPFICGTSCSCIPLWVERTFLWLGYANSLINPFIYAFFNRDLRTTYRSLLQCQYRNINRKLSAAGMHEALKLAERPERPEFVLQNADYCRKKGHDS
- Run description: cAMP accumulation GloSensor assay
- Condition details: read-out: EC50 (inverse agonism)
Measured quantity: EC50 (nM)
Please state the figure in nM; there is no need to write the unit.

Prompt: Using the record for CCN(CC)C(=O)[C@@H]1C=C2c3cccc4[nH]c(Br)c(c34)C[C@H]2N(C)C1.CCN(CC)C(=O)[C@@H]1C=C2c3cccc4[nH]c(Br)c(c34)C[C@H]2N(C)C1.O=C(O)C(O)C(O)C(=O)O , report its EC50.
Response: 5.1

---

- Study system: α2C (Homo sapiens, UniProt P18825)
- Run description: G protein dissociation BRET assay
Measured quantity: EC50 (nM)
API: value field is a number in nM; no unit string.

Prompt: Given the entry CCN(CC)C(=O)[C@@H]1C=C2c3cccc4[nH]c(Br)c(c34)C[C@H]2N(C)C1.CCN(CC)C(=O)[C@@H]1C=C2c3cccc4[nH]c(Br)c(c34)C[C@H]2N(C)C1.O=C(O)C(O)C(O)C(=O)O , what EC50 was observed with α2C (Homo sapiens, UniProt P18825)?
Response: 10.4

---

- Study system: Nav1.5 sodium channels (Homo sapiens, UniProt Q14524)
- Sequence (Q14524 whole entry): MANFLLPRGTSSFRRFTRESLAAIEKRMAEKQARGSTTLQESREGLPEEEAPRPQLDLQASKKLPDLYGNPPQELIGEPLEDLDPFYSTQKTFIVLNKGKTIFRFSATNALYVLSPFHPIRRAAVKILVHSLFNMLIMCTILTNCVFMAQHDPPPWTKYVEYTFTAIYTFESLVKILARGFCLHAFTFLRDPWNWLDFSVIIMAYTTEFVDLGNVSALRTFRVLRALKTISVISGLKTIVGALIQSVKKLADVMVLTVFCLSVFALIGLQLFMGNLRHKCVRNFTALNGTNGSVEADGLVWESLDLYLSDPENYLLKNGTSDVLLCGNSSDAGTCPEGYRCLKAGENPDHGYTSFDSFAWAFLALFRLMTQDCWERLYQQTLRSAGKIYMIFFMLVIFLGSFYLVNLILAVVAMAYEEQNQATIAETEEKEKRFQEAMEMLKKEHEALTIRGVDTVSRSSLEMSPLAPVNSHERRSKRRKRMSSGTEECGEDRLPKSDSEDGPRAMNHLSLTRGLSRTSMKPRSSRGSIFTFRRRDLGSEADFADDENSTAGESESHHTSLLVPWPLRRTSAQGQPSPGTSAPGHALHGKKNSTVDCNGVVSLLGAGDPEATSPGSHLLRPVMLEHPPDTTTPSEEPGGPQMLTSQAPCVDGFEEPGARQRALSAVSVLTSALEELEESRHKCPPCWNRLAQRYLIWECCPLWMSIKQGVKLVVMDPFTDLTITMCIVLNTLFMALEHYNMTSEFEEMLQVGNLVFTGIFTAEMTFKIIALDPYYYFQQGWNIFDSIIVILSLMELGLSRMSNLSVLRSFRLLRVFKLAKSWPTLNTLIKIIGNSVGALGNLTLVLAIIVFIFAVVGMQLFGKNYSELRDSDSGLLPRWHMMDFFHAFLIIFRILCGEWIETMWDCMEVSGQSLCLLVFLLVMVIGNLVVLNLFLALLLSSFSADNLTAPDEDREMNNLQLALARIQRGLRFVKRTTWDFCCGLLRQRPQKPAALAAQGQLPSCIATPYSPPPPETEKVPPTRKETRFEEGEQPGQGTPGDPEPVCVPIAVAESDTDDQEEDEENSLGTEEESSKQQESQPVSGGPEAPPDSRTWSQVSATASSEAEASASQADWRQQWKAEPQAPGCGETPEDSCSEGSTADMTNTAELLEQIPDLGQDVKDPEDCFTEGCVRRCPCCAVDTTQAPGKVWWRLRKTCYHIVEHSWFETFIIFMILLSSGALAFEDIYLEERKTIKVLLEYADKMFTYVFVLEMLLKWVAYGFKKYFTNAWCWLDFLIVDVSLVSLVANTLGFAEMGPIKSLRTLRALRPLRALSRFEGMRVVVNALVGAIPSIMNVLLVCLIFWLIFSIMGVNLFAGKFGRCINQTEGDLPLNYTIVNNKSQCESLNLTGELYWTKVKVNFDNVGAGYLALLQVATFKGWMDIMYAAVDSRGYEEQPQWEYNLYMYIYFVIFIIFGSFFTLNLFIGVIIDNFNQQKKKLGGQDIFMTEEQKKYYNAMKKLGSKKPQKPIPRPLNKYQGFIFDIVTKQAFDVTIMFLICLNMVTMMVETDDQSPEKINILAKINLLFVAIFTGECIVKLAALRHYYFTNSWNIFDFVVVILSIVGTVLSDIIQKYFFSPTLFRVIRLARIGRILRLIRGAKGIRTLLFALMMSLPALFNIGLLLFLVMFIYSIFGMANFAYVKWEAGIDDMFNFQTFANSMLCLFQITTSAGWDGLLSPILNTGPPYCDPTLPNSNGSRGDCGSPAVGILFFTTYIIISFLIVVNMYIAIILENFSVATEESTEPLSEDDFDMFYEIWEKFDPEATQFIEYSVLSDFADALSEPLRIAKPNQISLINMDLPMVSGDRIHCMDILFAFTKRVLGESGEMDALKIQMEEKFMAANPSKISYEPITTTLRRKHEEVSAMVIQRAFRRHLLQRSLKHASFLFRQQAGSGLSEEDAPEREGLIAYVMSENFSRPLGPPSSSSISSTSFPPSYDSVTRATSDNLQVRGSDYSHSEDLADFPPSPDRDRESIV
- Run description: Off-target panel: Nav1.5
Measured quantity: EC50 (nM)
Give the number; nM is assumed, so skip it.

Prompt: Entry CCN(CC)C(=O)[C@@H]1C=C2c3cccc4[nH]c(Br)c(c34)C[C@H]2N(C)C1.CCN(CC)C(=O)[C@@H]1C=C2c3cccc4[nH]c(Br)c(c34)C[C@H]2N(C)C1.O=C(O)C(O)C(O)C(=O)O : reported EC50 = ?
Response: 1100

---

- Study system: OCT2 (Homo sapiens, UniProt O15244)
- Sequence (O15244 whole entry): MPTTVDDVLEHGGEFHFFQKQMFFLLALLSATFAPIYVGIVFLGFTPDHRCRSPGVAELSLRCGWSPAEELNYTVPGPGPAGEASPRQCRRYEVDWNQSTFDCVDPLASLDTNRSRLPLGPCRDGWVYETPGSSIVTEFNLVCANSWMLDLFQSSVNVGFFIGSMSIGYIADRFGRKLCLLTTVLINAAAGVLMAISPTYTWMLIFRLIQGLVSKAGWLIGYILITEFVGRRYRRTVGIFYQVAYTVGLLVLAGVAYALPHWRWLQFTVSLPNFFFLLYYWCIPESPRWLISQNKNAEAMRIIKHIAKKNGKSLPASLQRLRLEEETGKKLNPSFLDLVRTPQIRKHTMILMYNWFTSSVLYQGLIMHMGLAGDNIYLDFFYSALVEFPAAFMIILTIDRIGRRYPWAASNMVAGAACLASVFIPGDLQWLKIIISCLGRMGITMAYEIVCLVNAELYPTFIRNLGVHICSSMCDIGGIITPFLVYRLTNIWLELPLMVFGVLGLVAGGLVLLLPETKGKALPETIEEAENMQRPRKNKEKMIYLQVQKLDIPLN
- Run description: Transporter panel: OCT2
Measured quantity: IC50 (nM)
Reply numerically in nM, unit not repeated.

Prompt: Consider the compound CCN(CC)C(=O)[C@@H]1C=C2c3cccc4[nH]c(Br)c(c34)C[C@H]2N(C)C1.CCN(CC)C(=O)[C@@H]1C=C2c3cccc4[nH]c(Br)c(c34)C[C@H]2N(C)C1.O=C(O)C(O)C(O)C(=O)O and give its measured IC50.
Response: 500
